Measured pIC50, listed per entry for reference.
# experiment.notes: Cytotoxicity against human MV522 cells after 48 hrs by trypan blue exclusion assay
# Format: functional, cell-based
# measurement.setup: MV522, 48 h
pIC50: −log10 of the molar value.

molecule | relation.operator | pIC50
CC1=C(CO)C2=C(C)C3(CC3)[C@@](C)(O)C(=O)C2=C1 [IROFULVEN] | = | 6.77
CC1=C(CCCNS(C)(=O)=O)C2=C(C)C3(CC3)[C@@](C)(O)C(=O)C2=C1 | = | 6.55
CC1=C(CCCOC(=O)N2CCCCC2)C2=C(C)C3(CC3)[C@@](C)(O)C(=O)C2=C1 | = | 5.92
CC1=C(CCCNS(N)(=O)=O)C2=C(C)C3(CC3)[C@@](C)(O)C(=O)C2=C1 | = | 7.12
CC1=C(CCCOC(=O)NCCCl)C2=C(C)C3(CC3)[C@@](C)(O)C(=O)C2=C1 | = | 7.24
CC1=C(CNS(N)(=O)=O)C2=C(C)C3(CC3)[C@@](C)(O)C(=O)C2=C1 | = | 6.52
CC1=C(CNC(=O)NO)C2=C(C)C3(CC3)[C@@](C)(O)C(=O)C2=C1 | = | 6.72
CC1=C(CCCNS(=O)(=O)NO)C2=C(C)C3(CC3)[C@@](C)(O)C(=O)C2=C1 | = | 8.10
CC1=C(CNC(=O)NCCO)C2=C(C)C3(CC3)[C@@](C)(O)C(=O)C2=C1 | = | 6.72
CC1=C(CCCNS(=O)(=O)c2ccc(C)cc2)C2=C(C)C3(CC3)[C@@](C)(O)C(=O)C2=C1 | = | 6.24
CC1=C(CCCNC(=O)NCCO)C2=C(C)C3(CC3)[C@@](C)(O)C(=O)C2=C1 | > | 7.10
